TARGET UNDER TEST: GNRR-3 (Caenorhabditis elegans, UniProt Q23265)
Sequence (Q23265 1-395): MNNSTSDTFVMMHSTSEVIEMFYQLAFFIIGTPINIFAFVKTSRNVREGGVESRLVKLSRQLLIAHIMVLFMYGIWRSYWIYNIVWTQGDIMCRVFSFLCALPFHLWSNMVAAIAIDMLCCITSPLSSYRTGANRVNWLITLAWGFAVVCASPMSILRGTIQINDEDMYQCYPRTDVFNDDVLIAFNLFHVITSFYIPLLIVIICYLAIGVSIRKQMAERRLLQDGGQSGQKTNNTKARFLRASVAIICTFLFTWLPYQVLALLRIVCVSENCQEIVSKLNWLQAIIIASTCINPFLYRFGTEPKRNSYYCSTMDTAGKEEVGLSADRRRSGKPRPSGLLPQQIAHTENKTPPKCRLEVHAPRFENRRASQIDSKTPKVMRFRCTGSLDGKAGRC
TEST NAME: Receptor activation assay (aequorin calcium mobilization), GNRR-3 co-expressed with promiscuous Gα16 in CHO cells
RUN CONDITIONS: CHO cells stably expressing apo-aequorin and Gα16, transiently transfected receptor; aequorin luminescence relative to total calcium response; mean EC50, N = 5–7 replicates; 95% confidence interval given
Where a SMILES comes first, the peptide text is derived from it.
EXPERIMENTAL ENDPOINT: pEC50
The quantity pEC50 is defined as the negative base-10 logarithm of the molar concentration.

# annotated cases, reported pEC50 shown
CSCC[C@H](NC(=O)[C@H](C)NC(=O)[C@H](CCSC)NC(=O)[C@@H](N)CO)C(=O)NCC(=O)N[C@@H](CCCNC(=N)N)C(=O)N[C@@H](CC(C)C)C(=O)NCC(=O)N[C@@H](CC(C)C)C(=O)N[C@@H](CCCNC(=N)N)C(=O)N1CCC[C@H]1C(N)=O [NLP-2-2] (H-SMAMGRLGLRP-NH2; N-terminus assumed) = 6.25
CSCC[C@H](NC(=O)[C@@H](N)CO)C(=O)N[C@@H](C)C(=O)N[C@@H](Cc1ccc(O)cc1)C(=O)NCC(=O)N[C@@H](CCCNC(=N)N)C(=O)N[C@@H](CCC(N)=O)C(=O)NCC(=O)N[C@@H](Cc1ccccc1)C(=O)N[C@@H](CCCNC(=N)N)C(=O)N1CCC[C@H]1C(N)=O [NLP-2-3] (H-SMAYGRQGFRP-NH2; N-terminus assumed) = 5.48
CC[C@H](C)[C@H](NC(=O)[C@@H](N)CO)C(=O)N[C@@H](C)C(=O)N[C@@H](CC(C)C)C(=O)NCC(=O)N[C@@H](CCCNC(=N)N)C(=O)N[C@@H](CO)C(=O)NCC(=O)N[C@@H](Cc1ccccc1)C(=O)N[C@@H](CCCNC(=N)N)C(=O)N1CCC[C@H]1C(N)=O [NLP-2-1] (H-SIALGRSGFRP-NH2; N-terminus assumed) = 4.09

Then this compound:
Ask: Hello, I am looking for reported pEC50 with GNRR-3 (Caenorhabditis elegans, UniProt Q23265) for CC[C@H](C)[C@H](NC(=O)[C@H](C)NC(=O)[C@H](CCSC)NC(=O)[C@@H](N)CO)C(=O)NCC(=O)N[C@@H](CCCNC(=N)N)C(=O)N[C@@H](C)C(=O)NCC(=O)N[C@@H](CCSC)C(=O)N[C@@H](CCCNC(=N)N)C(=O)N1CCC[C@H]1C(N)=O [NLP-23-2] (H-SMAIGRAGMRP-NH2; N-terminus assumed) . Could you help?
Reply: 6.80

All figures here come from paper PMC7303124.
